ASSAYED_TARGET: Ybr033w (UniProt P38073)
Sequence: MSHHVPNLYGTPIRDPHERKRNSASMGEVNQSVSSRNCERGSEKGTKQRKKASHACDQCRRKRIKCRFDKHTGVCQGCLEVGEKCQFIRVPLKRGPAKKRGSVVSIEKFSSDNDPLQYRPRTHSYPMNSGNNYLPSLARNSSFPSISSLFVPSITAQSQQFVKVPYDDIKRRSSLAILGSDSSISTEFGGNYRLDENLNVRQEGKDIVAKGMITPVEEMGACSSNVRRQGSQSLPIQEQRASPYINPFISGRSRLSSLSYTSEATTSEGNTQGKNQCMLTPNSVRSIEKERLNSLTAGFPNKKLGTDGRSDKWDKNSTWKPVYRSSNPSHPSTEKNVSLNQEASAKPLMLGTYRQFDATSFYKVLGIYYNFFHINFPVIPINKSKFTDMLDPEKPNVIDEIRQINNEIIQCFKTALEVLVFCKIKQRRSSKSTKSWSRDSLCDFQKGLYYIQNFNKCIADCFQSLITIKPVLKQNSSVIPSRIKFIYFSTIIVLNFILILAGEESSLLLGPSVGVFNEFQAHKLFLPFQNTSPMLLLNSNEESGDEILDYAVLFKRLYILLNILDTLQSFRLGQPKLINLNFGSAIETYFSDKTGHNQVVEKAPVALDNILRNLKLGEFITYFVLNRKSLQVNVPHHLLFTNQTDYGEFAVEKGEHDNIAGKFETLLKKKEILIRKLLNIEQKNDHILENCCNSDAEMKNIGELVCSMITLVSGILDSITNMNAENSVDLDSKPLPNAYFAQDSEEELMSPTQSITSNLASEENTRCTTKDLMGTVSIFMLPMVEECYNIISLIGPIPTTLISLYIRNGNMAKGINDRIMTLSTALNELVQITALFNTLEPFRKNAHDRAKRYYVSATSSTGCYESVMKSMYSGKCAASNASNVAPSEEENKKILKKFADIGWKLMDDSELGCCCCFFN
ASSAY_PROCEDURE: PBM E-score (8-mer binding enrichment) (E-score (-0.5 to 0.5)); higher = stronger / more preferred TF binding
CONDITION: protein concentration: 200 nM; construct: GST-full length
In all, about 33,000 sequences were measured (“E-score (-0.5 to 0.5)”: median about -0.012, highest 2% from about 0.29 on). For the sample, the highest values were picked, then their nearest neighbours and some sequences at random.
yes means recorded PBM E-score is -0.04 or above; no means it is below -0.04.

INPUT_SEQUENCE | CLASS_LABEL
CGTTCTAG | no
ACTTATAC | yes
CGGCTCAA | yes
ACTCTAAC | yes

q: Is PBM E-score at least -0.04? Consider "AAGTAATG"
a: yes

q: Is PBM E-score at least -0.04? Consider "AACTCTGG"
a: no

q: Is PBM E-score at least -0.04? Consider "CAGTAATG"
a: yes

q: Is PBM E-score at least -0.04? Consider "AAAGAGAC"
a: yes

q: Is PBM E-score at least -0.04? Consider "AGCAGTCC"
a: no

q: Is PBM E-score at least -0.04? Consider "CACCTCTC"
a: no

###

ASSAYED_TARGET: Ybr033w (UniProt P38073)
Sequence: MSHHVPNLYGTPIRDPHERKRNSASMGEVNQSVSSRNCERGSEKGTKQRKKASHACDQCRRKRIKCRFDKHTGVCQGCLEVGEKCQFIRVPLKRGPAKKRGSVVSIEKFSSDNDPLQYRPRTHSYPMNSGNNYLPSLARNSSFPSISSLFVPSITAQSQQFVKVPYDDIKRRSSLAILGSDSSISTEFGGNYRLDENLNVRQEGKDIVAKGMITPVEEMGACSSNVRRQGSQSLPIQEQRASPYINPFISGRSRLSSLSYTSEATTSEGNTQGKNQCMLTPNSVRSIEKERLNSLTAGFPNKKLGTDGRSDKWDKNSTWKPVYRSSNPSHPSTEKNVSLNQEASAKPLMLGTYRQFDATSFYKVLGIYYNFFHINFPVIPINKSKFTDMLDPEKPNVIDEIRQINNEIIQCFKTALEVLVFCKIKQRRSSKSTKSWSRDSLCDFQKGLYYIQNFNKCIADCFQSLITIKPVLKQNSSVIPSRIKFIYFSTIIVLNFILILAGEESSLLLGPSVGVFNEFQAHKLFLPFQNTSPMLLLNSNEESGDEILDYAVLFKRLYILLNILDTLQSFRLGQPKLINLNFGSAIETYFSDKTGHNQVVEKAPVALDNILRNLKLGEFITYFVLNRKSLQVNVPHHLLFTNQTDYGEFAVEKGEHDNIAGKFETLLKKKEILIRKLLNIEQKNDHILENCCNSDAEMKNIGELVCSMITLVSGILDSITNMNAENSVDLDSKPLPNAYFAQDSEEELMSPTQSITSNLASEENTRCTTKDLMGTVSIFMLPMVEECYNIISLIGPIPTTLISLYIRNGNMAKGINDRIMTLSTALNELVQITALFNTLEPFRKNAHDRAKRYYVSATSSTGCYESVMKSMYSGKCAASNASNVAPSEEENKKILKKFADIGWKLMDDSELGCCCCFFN
ASSAY_PROCEDURE: PBM E-score (8-mer binding enrichment) (E-score (-0.5 to 0.5)); higher = stronger / more preferred TF binding
CONDITION: protein concentration: 200 nM; construct: GST-full length
Over roughly 33,000 sequences, “E-score (-0.5 to 0.5)” has its median near -0.012; the highest 2% begin near 0.29. Many of the other results were omitted from the sample, so the highest values are more common in it than they were.
OBSERVABLE: PBM E-score
Write the number on its own, no unit after it.

INPUT_SEQUENCE | PBM E-score
GAACTTCA | 0.0447

q: What PBM E-score appears in the records for this sequence with Ybr033w (UniProt P38073)? "AAAATAAG"
a: 0.207

q: What PBM E-score appears in the records for this sequence with Ybr033w (UniProt P38073)? "GTCTTGCA"
a: 0.0132

q: What PBM E-score appears in the records for this sequence with Ybr033w (UniProt P38073)? "ATCTTGCA"
a: 0.294

q: What PBM E-score appears in the records for this sequence with Ybr033w (UniProt P38073)? "TAAATAGA"
a: 0.0889

q: What PBM E-score appears in the records for this sequence with Ybr033w (UniProt P38073)? "ATCTTGCG"
a: 0.0267

q: What PBM E-score appears in the records for this sequence with Ybr033w (UniProt P38073)? "AAAATAAT"
a: 0.319

q: What PBM E-score appears in the records for this sequence with Ybr033w (UniProt P38073)? "AATCTTCT"
a: 0.132

q: What PBM E-score appears in the records for this sequence with Ybr033w (UniProt P38073)? "AAAATAGC"
a: -0.0427

q: What PBM E-score appears in the records for this sequence with Ybr033w (UniProt P38073)? "TAAATAAA"
a: 0.301

q: What PBM E-score appears in the records for this sequence with Ybr033w (UniProt P38073)? "CCCGCCTC"
a: -0.17
